assay: HEK293 cell cytotoxicity, dose response, cytotoxicity control, plate reader, cherry-picked samples (AID 743446); conditions: hits give low values; at 26 µM unless noted
Entries with a potency or affinity are not part of this list. Active and inactive are the calls of the source. How the calls were made is not given here.
Property Label: max activity

The following compounds have reported results that may help.
CSc1ccc(NC(=O)Nc2cc(C)ccn2)cc1 ... 12.9% [at 0.05 µM] (inactive)
CN1CCN(c2ccc(NC(=O)N3CCc4ccccc43)cc2)CC1 ... 17.5% [at 1.6 µM] (inactive)
COc1ccccc1CNS(=O)(=O)c1ccc(N2CCCC2)cc1Br ... -9.37% (inactive)

Could you now consider this next compound?
Requested read-out: max activity. Entry: "O=C(Cc1ccccc1Cl)Nc1cccnc1"
17.2% [at 0.1 µM] (inactive)

====

The following molecules are shown together with reported max activity values.
experiment: HEK293 cell cytotoxicity, dose response, cytotoxicity control, plate reader, cherry-picked samples (AID 743446); details: hits give low values; at 26 µM unless noted
Measured potencies and affinities stand elsewhere. Active and inactive are the calls of the source. No rule for the calls is given here.

Requested read-out: max activity. Entry: "O=C(CSc1nc2ccccc2[nH]1)Nc1nc(-c2cccc(Br)c2)cs1"
46.2% [at 1.6 µM] (inactive)

Requested read-out: max activity. Entry: "C[C@@H]1CN([C@@H](C)CO)C(=O)c2cc(NS(=O)(=O)c3ccc(F)cc3)ccc2O[C@H]1CN(C)Cc1ccc(-c2ccccc2)cc1"
-27.1% (inactive)

Requested read-out: max activity. Entry: "COC(=O)c1ccc(Nc2cc(C)nc3ccc(C)cc23)cc1"
-31.7% [at 12 µM] (inactive)

Requested read-out: max activity. Entry: "CCOC(=O)c1cn2nc(N3CCCCC3)ccc2n1"
-14% [at 3 µM] (inactive)

Requested read-out: max activity. Entry: "CO[C@H]1CN(C)C(=O)c2ccc(NC(=O)C3CC3)cc2OC[C@@H](C)N(C(=O)Cc2ccccn2)C[C@H]1C"
22% [at 1.6 µM] (inactive)

====

assay: HEK293 cell cytotoxicity, dose response, cytotoxicity control, plate reader, cherry-picked samples (AID 743446); conditions: hits give low values; at 26 µM unless noted
Measured potencies and affinities stand elsewhere. The source made the active and inactive calls. How the calls were made is not given here.
The following compounds are shown together with reported max activity values.

The following compounds have reported results that may help.
CCCCCc1ccc(-c2ccc(C(=O)O)cc2)nc1 ... 34.4% [at 0.8 µM] (inactive)
Fc1ccc(-n2nnc(-c3cnc4ccccc4c3)n2)cc1 ... 26.8% [at 1.6 µM] (inactive)
Cc1ccccc1C(=O)Nc1ccc2c(c1)OCCO2 ... -9.3% [at 0.05 µM] (inactive)

Requested read-out: max activity. Entry: "Nc1nccc(-c2cc(-c3ccc(Cl)cc3Cl)no2)n1"
47.2% [at 6 µM] (inactive)

Requested read-out: max activity. Entry: "O=C(O)c1ccc(-c2noc(-c3ccccc3Cl)n2)cc1"
-20.2% [at 6 µM] (inactive)

Requested read-out: max activity. Entry: "COCCCNc1ccn2nc(-c3ccccc3)cc2n1"
42.6% [at 12 µM] (inactive)

====

assay: HEK293 cell cytotoxicity, dose response, cytotoxicity control, plate reader, cherry-picked samples (AID 743446); conditions: hits give low values; at 26 µM unless noted
Measured potencies and affinities stand elsewhere. Activity calls are given as the source filed them. How the calls were made is not given here.
The following molecules are shown together with reported max activity values.

The following molecules have reported results that may help.
Cc1ccc2nc(-c3ccc(NC(=O)COC(=O)c4ccco4)cc3)sc2c1 ... -11.7% [at 1.6 µM] (inactive)
CCCCC(=O)N(C)c1c(C)nc2ccc(C(=O)N3CCCCC3)cn12 ... -12.7% [at 12 µM] (inactive)
CCOC(=O)c1cn2nc(N3CCCC3)ccc2n1 ... -7.31% [at 6 µM] (inactive)
O=C(Nc1ccc2c(c1)OCCO2)c1ccc(Cl)cc1Cl ... -20.3% [at 3 µM] (inactive)
O=C(O)c1cccc(Nc2ccnc(Nc3cccc(C(=O)O)c3)n2)c1 ... -12.2% [at 0.05 µM] (inactive)

Requested read-out: max activity. Entry: "C[C@H](CO)N1C[C@H](C)[C@H](CN(C)C(=O)Nc2ccccc2)OCCCC[C@H](C)Oc2ccc(NC(=O)CCC(F)(F)F)cc2C1=O"
-24.3% [at 0.195 µM] (inactive)

Requested read-out: max activity. Entry: "O=C(C[C@H]1C=C[C@@H](NC(=O)C2CCC2)[C@H](CO)O1)NCCCN1CCOCC1"
-15.9% [at 1.6 µM] (inactive)

Requested read-out: max activity. Entry: "COc1ccc(S(=O)(=O)Nc2ccc3c(c2)C(=O)N([C@@H](C)CO)C[C@@H](C)[C@H](CN(C)C(=O)Nc2cccc4ccccc24)OCCCC[C@H](C)O3)cc1"
35.8% [at 12 µM] (inactive)

Requested read-out: max activity. Entry: "CCCn1c(C)cc(C(=O)CN2C(=O)c3ccccc3S2(=O)=O)c1C"
-16% [at 3 µM] (inactive)

Requested read-out: max activity. Entry: "COc1ccc(N(CC(=O)NCc2cccs2)S(=O)(=O)c2ccc(C(C)=O)cc2)cc1"
-10.6% [at 3 µM] (inactive)

Requested read-out: max activity. Entry: OC1CCC(Nc2ccn3nc(-c4cccc(OCc5ccccc5)c4)cc3n2)CC1 (stereo not given)
-14.9% [at 12 µM] (inactive)

====

experiment: HEK293 cell cytotoxicity, dose response, cytotoxicity control, plate reader, cherry-picked samples (AID 743446); settings: hits give low values; at 26 µM unless noted
Measured potencies and affinities stand elsewhere. Active and inactive are the calls of the source. The rule behind the calls is not given here.
Property Label: max activity

Cc1ccc(Nc2nc(N)c3ccccc3n2)cc1C ... -37.4% (inactive)

Requested read-out: max activity. Entry: "c1ccc(-c2cn3c4c(sc3n2)CCCC4)cc1"
-19.5% (inactive)

Requested read-out: max activity. Entry: "Cc1ccc(Nc2nc(-c3ccccc3)cs2)nc1"
-17.9% [at 0.05 µM] (inactive)

Requested read-out: max activity. Entry: "c1ccc(COc2ccc(OCCCN3CCCC3)cc2)cc1"
-13.8% [at 0.05 µM] (inactive)

Requested read-out: max activity. Entry: "CC(=O)N1CCCCN2[C@H](CO)[C@H](c3ccc(-c4cccc(C)c4)cc3)[C@@H]2C1"
30.5% [at 1.6 µM] (inactive)

Requested read-out: max activity. Entry: "O=C(NCCc1ccccc1)c1ccc2nccnc2c1"
9% (inactive)

====

The following compounds are shown together with reported max activity values.
experiment: HEK293 cell cytotoxicity, dose response, cytotoxicity control, plate reader, cherry-picked samples (AID 743446); details: hits give low values; at 26 µM unless noted
Entries with a potency or affinity are not part of this list. Active and inactive are the calls of the source. The rule behind the calls is not given here.

The following compounds have reported results that may help.
Cc1ccc(-c2cc(C(=O)N(C)Cc3cnn(C)c3C)c3cc(Br)ccc3n2)cc1 ... -9.48% (inactive)
O=C(CN1C(=O)c2ccccc2S1(=O)=O)Nc1ncc(Cl)cc1Cl ... -12.9% [at 1.6 µM] (inactive)
CCCOc1ccc(F)cc1-c1cc(C(=O)Nc2cc(OC)c(OC)c(OC)c2)[nH]n1 ... 9.95% [at 3 µM] (inactive)
CCOc1ccc(C(=O)Nc2cccc(C(=O)O)c2C)cc1Cl ... 26.7% (inactive)
CSc1nnc(NC(=O)c2ccc3c(c2)OCO3)s1 ... -9.38% [at 12 µM] (inactive)

Could you now consider this next compound?
Requested read-out: max activity. Entry: "O=C(NCc1ccco1)c1cc(NS(=O)(=O)c2cccc([N+](=O)[O-])c2)ccc1O"
40.6% [at 0.38 µM] (inactive)

====

assay: HEK293 cell cytotoxicity, dose response, cytotoxicity control, plate reader, cherry-picked samples (AID 743446); conditions: hits give low values; at 26 µM unless noted
Measured potencies and affinities stand elsewhere. Active and inactive are the calls of the source. The rule behind the calls is not given here.
Property Label: max activity

C[C@H]1CN([C@@H](C)CO)C(=O)c2cc(C#CCc3ccccc3)cnc2O[C@H]1CN(C)Cc1ccccc1 ... 13.9% [at 3 µM] (inactive)
O=C(NCCc1ccccc1)c1ccc2c(c1)OCCO2 ... 15.3% [at 0.195 µM] (inactive)
O=c1[nH]c(CSc2ccccn2)nc2c1oc1ccccc12 ... -17.8% (inactive)
CN1CCN(c2ccc(NC(=O)c3sc4ccccc4c3Cl)cc2)CC1 ... 17.1% [at 0.1 µM] (inactive)
COc1ccc(/C=C/C(=O)Nc2ccccc2C(=O)O)cc1OC ... 13.2% [at 1.6 µM] (inactive)
COc1ccc(Cl)cc1C(=O)Nc1nc2ccccc2[nH]1 ... 69.4% [at 0.195 µM] (inactive)
Oc1ccc(-c2csc(-c3cccnc3)n2)c(O)c1 ... -34.3% (inactive)
Cc1noc(C)c1S(=O)(=O)Nc1cccc2c1O[C@H](CN(C)C(=O)Nc1ccc(F)cc1)[C@H](C)CN([C@H](C)CO)C2=O ... -6.26% (inactive)
O=C(C[C@@H]1C[C@H]2c3cc(NC(=O)c4ccc5c(c4)OCO5)ccc3O[C@H]2[C@@H](CO)O1)NCc1ccc(Oc2ccccc2)cc1 ... -15.7% [at 0.05 µM] (inactive)

Could you now consider this next compound?
Requested read-out: max activity. Entry: "Cc1ccc(-n2nnc(-c3nccn3C)n2)cc1"
-39% (inactive)
